For each of the compounds below, state its pEC50.
# Tested on: Human immunodeficiency virus 1
# Experiment description: Antiviral activity against HIV1 RF in CEM-SS cells assessed as inhibition of virus-induced cytopathic effect by XTT assay
# Format: functional, organism-based
# Condition info: Human immunodeficiency virus 1, RF
Give bare numbers, as −log10 of the molar value.

Some compounds with known pEC50 results, for comparison:
| Smiles entry | pEC50 |
| --- | --- |
| COC(=O)CCC/C=C(\c1cc(C)c(OC)c(C(=O)OC)c1)c1cc(C)c2oc(=O)n(C)c2c1 | 7.52 |
| COC(=O)CCCC=C(c1cc(C)c2oc(=O)n(C)c2c1)c1cc(C)c2oc(=O)n(C)c2c1 | 6.21 |
| CCCCCC=C(c1cc(Cl)c(OC)c(C(=O)OC)c1)c1cc(Cl)c(OC)c(C(=O)OC)c1 | 4.80 |
| COC(=O)CCCC=C(c1cc(Br)c(OC)c(C(=O)OC)c1)c1cc(Br)c(OC)c(C(=O)OC)c1 | 9.00 |

**Query** Please look up its pEC50: COC(=O)c1cc(C(=CCCCSC)c2cc(Cl)c(OC)c(C(=O)OC)c2)cc(Cl)c1OC
**Result** 5.28

* * *

Exercise: for every item that follows, state its recorded CC50.
# Experiment description: Cytotoxicity against human CEM-SS cells
# Assay type: cell-based

| Smiles entry | Experimental result |
| --- | --- |
| COC(=O)c1cc(C(=CCCCSC)c2cc(Cl)c(OC)c(C(=O)OC)c2)cc(Cl)c1OC | > 20 µM |
| CCCCCC=C(c1cc(Cl)c(OC)c(C(=O)OC)c1)c1cc(Cl)c(OC)c(C(=O)OC)c1 | > 29 µM |
| COC(=O)c1cc(C(=CCCCc2ccccc2)c2cc(Br)c(OC)c(C(=O)OC)c2)cc(Br)c1OC | > 200 µM |

Please turn your attention to the following entry.
**Query** Which CC50 value is on record for COC(=O)CCCC=C(c1cc(C)c2oc(=O)n(C)c2c1)c1cc(C)c2oc(=O)n(C)c2c1 ?
**Result** 31 µM

* * *

Would you kindly list IC50 for each of these compounds?
# Target desc: Human immunodeficiency virus type 1 reverse transcriptase (Human immunodeficiency virus 1)

| Smiles entry | IC50 |
| --- | --- |
| COC(=O)c1cc(C(=CCCCSC)c2cc(Cl)c(OC)c(C(=O)OC)c2)cc(Cl)c1OC | > 100 µM |

Provide the reported IC50 of each entry below, same order.
1. COC(=O)CCCC=C(c1cc(C)c2oc(=O)n(C)c2c1)c1cc(C)c2oc(=O)n(C)c2c1
2. COC(=O)c1cc(C(=CCCCc2ccccc2)c2cc(Br)c(OC)c(C(=O)OC)c2)cc(Br)c1OC

**Result**
["0.5 µM", "> 100 µM"]

* * *

# Experiment description: Cytotoxicity against human MT4 cells
# Type: cell-based
Measurement type: CC50 (µM)
Numbers only, in µM.

**Query** Entry COC(=O)CCCC=C(c1cc(C)c2oc(=O)n(C)c2c1)c1cc(C)c2oc(=O)n(C)c2c1 : reported CC50 = ?
**Result** 33

Source of measurements: ChEMBL document CHEMBL1142364
